Where these numbers come from: paper PMC3546729

# target.desc: AidB (Escherichia coli, UniProt P33224)
# Sequence (P33224 whole entry): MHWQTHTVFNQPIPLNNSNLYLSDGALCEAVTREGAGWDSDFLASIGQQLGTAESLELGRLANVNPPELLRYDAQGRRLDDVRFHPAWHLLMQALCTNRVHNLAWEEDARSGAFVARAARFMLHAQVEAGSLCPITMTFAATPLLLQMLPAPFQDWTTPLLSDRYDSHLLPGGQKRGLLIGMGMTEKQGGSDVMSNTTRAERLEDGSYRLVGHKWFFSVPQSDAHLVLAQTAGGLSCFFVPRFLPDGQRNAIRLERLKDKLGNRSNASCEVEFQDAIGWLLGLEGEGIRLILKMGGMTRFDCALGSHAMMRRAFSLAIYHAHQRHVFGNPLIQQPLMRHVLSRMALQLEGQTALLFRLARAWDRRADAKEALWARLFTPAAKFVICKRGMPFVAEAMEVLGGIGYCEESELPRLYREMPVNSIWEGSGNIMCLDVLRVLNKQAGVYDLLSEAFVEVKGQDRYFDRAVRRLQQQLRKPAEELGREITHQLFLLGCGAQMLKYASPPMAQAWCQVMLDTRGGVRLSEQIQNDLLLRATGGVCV
measurement.name: Kd (µM)
Write the number in µM without appending the unit.

Prompt line: Supply reported Kd belonging to this compound: CC(C)CC(=O)SCCNC(=O)CCNC(=O)[C@H](O)C(C)(C)COP(=O)(O)OP(=O)(O)OC[C@H]1O[C@@H](n2cnc3c(N)ncnc32)[C@H](O)[C@@H]1OP(=O)(O)O
Response line: 87
